test-target: Anti-CD28 Fab (SEQ ID NOs: 202, 203)
Sequence (VH, as listed by the source, chain 1 of 2): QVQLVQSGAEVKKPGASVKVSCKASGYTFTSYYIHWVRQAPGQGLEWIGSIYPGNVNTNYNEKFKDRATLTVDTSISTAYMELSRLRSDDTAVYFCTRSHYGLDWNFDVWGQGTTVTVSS
Sequence (VL, as listed by the source, chain 2 of 2): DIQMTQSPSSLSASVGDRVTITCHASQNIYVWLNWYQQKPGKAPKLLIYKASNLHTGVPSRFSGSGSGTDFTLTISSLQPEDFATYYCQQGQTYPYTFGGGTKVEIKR
assay-name: phage binding ELISA on captured Fab;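 also: clonal phage supernatants added briefly to wells pre-incubated with CD28 antigen or with blocking buffer only, then washed, bound phage read by ELISA using HRP-coupled anti-M13 antibody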
Would you mind labelling by Anti-CD28 Fab signal? At or over 2 is criterion met, under is criterion not met.

Solved entries (count: 3):
YCEGHAAEYMAKCL [Phage-63]	criterion met
YCEGHLPEYLAKCL [Phage-35]	criterion met
YCDGHLPEYQEKCL [Phage-71]	criterion met

Please tell me: is the binder SCAAGASYAWPYCL [Phage-18] at or over 2 in terms of Anti-CD28 Fab signal?
criterion not met

Can you handle DCWWMFESYPGRCI [Phage-12] next?
criterion not met

Can you handle YCEGHSQENIWKCL [Phage-32] next?
criterion not met

Can you handle YCDGHLPLYLAKCL [Phage-133] next?
criterion met

Can you handle YCQGHLPMYMAKCL [Phage-77] next?
criterion met

Can you handle YCAGHLPQYMSKCL [Phage-72] next?
criterion met

Can you handle YCEGHLPMYMDKCL [Phage-140] next?
criterion met

Can you handle YCAGHMPQYEVKCL [Phage-21] next?
criterion not met

Can you handle YCEGHLPEYRNKCL [Phage-40] next?
criterion met

Can you handle YCDGHLPEYMEKCL [Phage-50] next?
criterion met

Can you handle YCDGHLPEYLAKCL [Phage-64] next?
criterion met

Can you handle YCDGHSPIYMWKCL [Phage-45] next?
criterion met
